Consider the following molecules; for each one, report its IC50.
MEASURED ON: Human HDAC7 aa 518-end (Homo sapiens, UniProt Q8WUI4)
Sequence (Q8WUI4 518-952 limits assumed): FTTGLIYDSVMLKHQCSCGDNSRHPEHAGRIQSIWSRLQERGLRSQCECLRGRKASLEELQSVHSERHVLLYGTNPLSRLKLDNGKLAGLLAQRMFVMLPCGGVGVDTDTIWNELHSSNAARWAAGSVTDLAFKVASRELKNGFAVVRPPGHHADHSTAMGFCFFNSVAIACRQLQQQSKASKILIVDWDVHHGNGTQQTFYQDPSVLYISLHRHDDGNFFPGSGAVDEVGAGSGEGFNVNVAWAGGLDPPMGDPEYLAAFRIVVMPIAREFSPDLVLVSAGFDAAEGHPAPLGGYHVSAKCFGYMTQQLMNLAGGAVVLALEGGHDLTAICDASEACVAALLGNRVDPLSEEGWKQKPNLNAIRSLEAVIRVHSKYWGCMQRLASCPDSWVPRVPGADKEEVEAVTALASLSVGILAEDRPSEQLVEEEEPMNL

>  <MOLECULE>
O=C(NO)c1ccc(CN2C3CCC2CC(=NO)C3)c(F)c1 [compound 54]

>  <MEASURED ON>
Human HDAC7 aa 518-end (Homo sapiens, UniProt Q8WUI4)

>  <OBSERVED>
1 to 10 µM

$$$$

For every item in the list below, what is its measured IC50?
1. CN1CC2(CCCCC2)CC[C@@H]1Cc1cc(F)cc(C(=O)NO)c1 (single isomer, unassigned) [compound 170]
2. O=C(NO)c1cc(F)c2c(c1)CCN(CC1CCCCC1)C2 [compound 19]
3. O=C(NO)c1ccc(CN2C3CCCC2CCC3)c(F)c1 [compound 60]
4. O=C(NO)c1ccc(CN2C3CCCC2CC3)c(F)c1 [compound 61]

Ans:
1 to 10 µM
10 to 100 µM
1 to 10 µM
1 to 10 µM

----------
MEASURED ON: Full length Human HDAC10 (Homo sapiens)
Sequence (Q969S8 whole entry): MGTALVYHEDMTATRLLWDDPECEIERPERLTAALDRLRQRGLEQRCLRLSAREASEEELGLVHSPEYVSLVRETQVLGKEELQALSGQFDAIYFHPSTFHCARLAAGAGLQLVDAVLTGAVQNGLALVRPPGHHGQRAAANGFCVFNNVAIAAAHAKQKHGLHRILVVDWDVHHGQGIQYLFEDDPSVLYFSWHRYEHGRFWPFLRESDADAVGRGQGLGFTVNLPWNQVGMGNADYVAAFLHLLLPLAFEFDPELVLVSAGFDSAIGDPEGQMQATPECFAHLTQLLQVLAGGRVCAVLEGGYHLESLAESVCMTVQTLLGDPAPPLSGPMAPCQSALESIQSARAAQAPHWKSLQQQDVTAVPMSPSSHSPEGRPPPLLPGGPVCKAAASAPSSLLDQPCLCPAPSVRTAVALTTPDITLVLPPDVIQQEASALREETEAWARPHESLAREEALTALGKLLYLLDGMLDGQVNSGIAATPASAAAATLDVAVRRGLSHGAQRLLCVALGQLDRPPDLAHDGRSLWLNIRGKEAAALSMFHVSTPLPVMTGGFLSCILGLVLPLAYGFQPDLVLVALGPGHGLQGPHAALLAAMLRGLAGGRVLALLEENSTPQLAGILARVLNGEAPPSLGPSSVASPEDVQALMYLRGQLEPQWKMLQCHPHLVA
EXPERIMENTAL ENDPOINT: IC50

>  <COMPOUND>
O=C(NO)c1cc(F)c2c(c1)CN(CC13CC4CC(CC(C4)C1)C3)C2 [compound 33]

>  <MEASURED ON>
Full length Human HDAC10 (Homo sapiens)

>  <IC50>
10 to 100 µM

$$$$

For every item in the list below, what is its measured IC50?
1. O=C(NO)c1ccc(CN2CC3CCC2CO3)c(F)c1 (stereo not drawn) [compound 58]
2. O=C(NO)c1ccc2c(c1)C[C@H]1COCC(=O)N1C2 (single isomer, unassigned) [compound 134]
3. O=C(NO)c1cc(F)c2c(c1)CCN1CCCC[C@@H]21 (single isomer, unassigned) [compound 139]
4. O=C(NO)c1cc(F)c2c(c1)CCN(CC1CCCCC1)C2 [compound 19]
5. O=C(NO)c1ccc(CN2C3CCCC2CC3)c(F)c1 [compound 61]
6. O=C(NO)c1cc(F)c2c(c1)C[C@@H]1CCCCN1C2 (single isomer, unassigned) [compound 93]

Ans:
10 to 100 µM
10 to 100 µM
10 to 100 µM
10 to 100 µM
> 100 µM
10 to 100 µM

For every item in the list below, what is its measured IC50?
1. O=C(NO)c1cc(F)c2c(c1)CCN(C1CC3(CCC3)C1)C2 [compound 112]
2. O=C(NO)c1ccc(CN2C3CCC2CC(=NO)C3)c(F)c1 [compound 54]

Ans:
> 100 µM
> 100 µM

----------
MEASURED ON: UniProtKB Q9BY41
TEST PARAMETERS: read-out: In vitro enzymatic IC50, HDAC Paralog 8; Table 2
pIC50: −log10 of the molar value.
Consider the following compounds; for each one, report its pIC50.

// below: answered compounds
>  <COMPOUND>
O=C(NO)c1ccc(CN2C3CCCC2CC3)c(F)c1

>  <MEASURED ON>
UniProtKB Q9BY41

>  <EXPERIMENTAL ENDPOINT>
pIC50

>  <OBSERVED>
5.00 to 6.00

$$$$
>  <COMPOUND>
O=C(NO)c1cc(F)c2c(c1)CCN(C1CC3(CCC3)C1)C2

>  <MEASURED ON>
UniProtKB Q9BY41

>  <EXPERIMENTAL ENDPOINT>
pIC50

>  <OBSERVED>
< 4.00

$$$$
>  <COMPOUND>
O=C(NO)c1cc(F)c2c(c1)CC1CCCN1C2 (single isomer, unassigned)

>  <MEASURED ON>
UniProtKB Q9BY41

>  <EXPERIMENTAL ENDPOINT>
pIC50

>  <OBSERVED>
5.00 to 6.00

$$$$

For every item in the list below, what is its measured pIC50?
1. O=C(NO)c1ccc(CN2CCC3(C2)C2CC4CC(C2)CC3C4)c(F)c1 (stereo not shown)
2. O=C(NO)c1cc(F)c2c(c1)CCN(Cc1ccccc1)C2
3. O=C(NO)c1ccc(CN2C3CCCC2CCC3)c(F)c1
4. O=C(NO)c1ccc(CN2C3CCC2CC(=NO)C3)c(F)c1
5. O=C(NO)c1cc(F)c2c(c1)CCN(C1CC3(CCCCC3)C1)C2
6. O=C(NO)c1ccc(CN2CCC3(CCCCC3)CC2)c(F)c1
7. O=C(NO)c1ccc(CN2CC3CCC2CO3)c(F)c1 (stereo not shown)
8. O=C(NO)c1cc(F)c2c(c1)CN(CC13CC4CC(CC(C4)C1)C3)C2

Ans:
6.00 to 7.00
5.00 to 6.00
5.00 to 6.00
6.00 to 7.00
4.00 to 5.00
5.00 to 6.00
6.00 to 7.00
5.00 to 6.00

For every item in the list below, what is its measured pIC50?
1. O=C(NO)c1cc(F)c2c(c1)CCN([C@@H]1CCC3(CCCCC3)C1)C2 (single isomer, unassigned)
2. CC(C)(C)CN1CCc2cc(C(=O)NO)cc(F)c2C1
3. O=C(NO)c1ccc(CN2CCC3(CCCCC3)C2)c(F)c1
4. O=C(NO)c1ccc(CN2CC3CCC(C2)O3)c(F)c1
5. O=C(NO)c1cc(F)c2c(c1)CCN(C1CC3(COC3)C1)C2
6. O=C(NO)c1ccc(CN2C[C@@H]3CC[C@H]2CO3)c(F)c1 (single isomer, unassigned)
7. O=C(NO)c1cc(F)c2c(c1)CCN(CC1COC1)C2

Ans:
["5.00 to 6.00", "4.00 to 5.00", "5.00 to 6.00", "6.00 to 7.00", "4.00 to 5.00", "5.00 to 6.00", "4.00 to 5.00"]

For every item in the list below, what is its measured pIC50?
1. O=C(NO)c1cc(F)c(CN2CCC3(CCCCC3)C2)cc1F
2. O=C(NO)c1cc(F)c2c(c1)CCN(C1COC1)C2
3. O=C(NO)c1ccc2c(c1)CN1CCCCN1C2

Ans:
1. 5.00 to 6.00
2. 5.00 to 6.00
3. 5.00 to 6.00

For every item in the list below, what is its measured pIC50?
1. O=C(NO)c1cc(F)c2c(c1)CCN(CC1CCCCC1)C2
2. O=C(NO)c1cc(F)c2c(c1)CCN(CC13CC4CC(CC(C4)C1)C3)C2
3. O=C(NO)c1ccc(CN2C3CCC2COC3)c(F)c1
4. CN1CC2(CCCCC2)CC[C@@H]1Cc1cc(F)cc(C(=O)NO)c1 (single isomer, unassigned)

Ans:
5.00 to 6.00
4.00 to 5.00
6.00 to 7.00
5.00 to 6.00

----------
Consider the following compounds; for each one, report its concentration at 15 min.
PROCEDURE SUMMARY: In vivo assessment of brain penetration in mice (IV 1 mg/kg, plasma and brain levels)
TEST PARAMETERS: mouse, BL/6 mice, brain, 15 min, read-out: Mouse Brain Conc (μM) at 15 min
One number for each entry, in µM.

// below: answered compounds
>  <COMPOUND>
O=C(NO)c1ccc(CN2CCc3c([nH]c4ccccc34)C2)c(F)c1 [compound 46]

>  <VALUE UNIT>
µM

>  <concentration at 15 min>
0.15

$$$$
>  <COMPOUND>
O=C(NO)c1cc(F)c2c(c1)CN(CC13C4C5C6C4C1C6C53)CC2 (stereo not drawn) [compound 116]

>  <VALUE UNIT>
µM

>  <concentration at 15 min>
0.39

$$$$

// below: concentration at 15 min requested for another compound
Q: What measured concentration at 15 min goes with O=C(NO)c1ccc2c(c1)C[C@@H]1CCCN1C2 (single isomer, unassigned) [compound 121] ?
Ans: 0.19

----------
pIC50: −log10 of the molar value.
Assay read-out pIC50; system under study: Full length Human HDAC8 (Homo sapiens).
Sequence (Q9BY41 whole entry): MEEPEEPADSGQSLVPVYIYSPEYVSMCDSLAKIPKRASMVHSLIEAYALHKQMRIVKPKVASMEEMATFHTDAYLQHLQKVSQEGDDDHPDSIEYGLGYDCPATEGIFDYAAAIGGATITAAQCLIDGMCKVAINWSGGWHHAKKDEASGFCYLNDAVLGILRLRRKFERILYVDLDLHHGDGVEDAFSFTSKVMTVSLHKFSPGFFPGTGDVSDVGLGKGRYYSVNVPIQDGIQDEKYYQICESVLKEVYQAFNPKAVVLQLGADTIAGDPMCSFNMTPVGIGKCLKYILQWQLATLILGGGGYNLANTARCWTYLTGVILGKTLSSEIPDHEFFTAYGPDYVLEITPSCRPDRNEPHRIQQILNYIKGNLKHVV

>  <COMPOUND>
O=C1CC2CCCC(C1)N2Cc1ccc(C(=O)NO)cc1F

>  <pIC50>
6.00 to 7.00

$$$$
>  <COMPOUND>
CC1(C)C[C@H]2Cc3c(F)cc(C(=O)NO)cc3CN2C1 (single isomer, unassigned)

>  <pIC50>
5.00 to 6.00

$$$$
>  <COMPOUND>
CN1CC2(CCCCC2)CC[C@H]1Cc1cc(F)cc(C(=O)NO)c1 (single isomer, unassigned)

>  <pIC50>
5.00 to 6.00

$$$$
>  <COMPOUND>
O=C(NO)c1cc(F)c2c(c1)CN(CC13CC4CC(CC(C4)C1)C3)CC2

>  <pIC50>
5.00 to 6.00

$$$$
>  <COMPOUND>
O=C(NO)c1cc(F)c2c(c1)CCN(CC1CCCCC1)C2

>  <pIC50>
5.00 to 6.00

$$$$

For every item in the list below, what is its measured pIC50?
1. O=C(NO)c1cc(F)c2c(c1)CN(CC13C4C5C6C4C1C6C53)CC2 (centres unmarked)
2. CN1Cc2ccc(C(=O)NO)cc2CN1Cc1ccccc1

Ans:
1: 6.00 to 7.00; 2: 6.00 to 7.00
